ED50 values, listed per item
species: Rattus norvegicus; assay: Nociceptive paw flinching in rats assessed 30 min following an intraplantar injection of 5% formalin into the right hind paw.; type: functional; settings: 0.5 h
Response body: numeric value in µmol/kg, unit text excluded.

// worked examples, ED50 included
- Structure string: "Nc1ncnc(C#Cc2ccc(N3CCOCC3)nc2)c1Cc1ccccc1"
  Observable: "ED50"
  Observed result: 30
- Structure string: "CN(Cc1ccccc1Cl)c1c(N)ncnc1C#Cc1ccc(N2CCOCC2)nc1"
  Observable: "ED50"
  Observed result: 10
- Structure string: "Nc1ncnc(C#Cc2ccc(N3CCOCC3)nc2)c1CCCc1ccccc1"
  Observable: "ED50"
  Observed result: 8

For `COc1ccc(CCCc2c(N)ncnc2C#Cc2ccc(N3CCOCC3)nc2)cc1` , write its ED50.
20

For `CN(Cc1ccccc1Cl)Cc1c(N)ncnc1C#Cc1ccc(N2CCOCC2)nc1` , write its ED50.
30

For `CN(Cc1ccccc1)c1c(N)ncnc1C#Cc1ccc(N2CCOCC2)nc1` , write its ED50.
10
